- assay.procedure: Cytotoxicity assay (LDH release), hRPTEC
- Format: cell-based, human
- test.parameters: human
Bridge positions count the residues as written; N and C are the ends. Square brackets hold non-standard residues; d marks the D form. Peptide text beside a SMILES is read from it. * marks the point of attachment. Isonicotinoyl(2-Ph) = O=C(c1ccnc(-c2ccccc2)c1)*; X17 = N#Cc1ccc(-c2cccc(C(=O)*)c2)cc1; X37 = COc1cc(C(=O)*)cc(-c2ccccc2)n1; X7 = O=C(c1ccnc(-c2ccccc2F)c1)*; dDap = NC[C@@H](N)C(=O)O; Dab = NCC[C@H](N)C(=O)O; Dap = NC[C@H](N)C(=O)O
measured.property: CC50 at 24 h (µM)
// note: answer is a bare numeric in µM

Name the recorded CC50 at 24 h for CC(C)C[C@@H]1NC(=O)[C@@H](Cc2ccccc2)NC(=O)[C@H](CCN)NC(=O)[C@@H](NC(=O)[C@H](CN)NC(=O)[C@H](CO)NC(=O)[C@H](CCN)NC(=O)c2ccnc(-c3ccccc3)c2)CCNC(=O)[C@H]([C@@H](C)O)NC(=O)[C@H](CCN)NC(=O)[C@H](CCN)NC1=O [Example 46] ({Isonicotinoyl(2-Ph)}-[Dab]S[Dap][Dab][Dab][dF]L[Dab][Dab]T; lactam 4-C) .
98

Name the recorded CC50 at 24 h for COc1cc(C(=O)N[C@@H](CCN)C(=O)N[C@H](C(=O)N[C@@H](CN)C(=O)N[C@H]2CCNC(=O)[C@H]([C@@H](C)O)NC(=O)[C@H](CCN)NC(=O)[C@H](CCN)NC(=O)[C@H](CC(C)C)NC(=O)[C@@H](Cc3ccccc3)NC(=O)[C@H](CCN)NC2=O)[C@@H](C)O)cc(-c2ccccc2)n1 [Example 35] (X37-[Dab]T[Dap][Dab][Dab][dF]L[Dab][Dab]T; lactam 4-C) .
24

Name the recorded CC50 at 24 h for CC(C)C[C@@H]1NC(=O)[C@@H](Cc2ccccc2)NC(=O)[C@H](CCN)NC(=O)[C@@H](NC(=O)[C@H](CN)NC(=O)[C@@H](NC(=O)[C@H](CCN)NC(=O)c2cccc(-c3ccc(C#N)cc3)c2)[C@@H](C)O)CCNC(=O)[C@H]([C@@H](C)O)NC(=O)[C@H](CCN)NC(=O)[C@H](CCN)NC1=O [Example 32] (X17-[Dab]T[Dap][Dab][Dab][dF]L[Dab][Dab]T; lactam 4-C) .
33

Name the recorded CC50 at 24 h for CC(C)C[C@@H]1NC(=O)[C@@H](Cc2ccccc2)NC(=O)[C@H](CCN)NC(=O)[C@@H](NC(=O)[C@H](CN)NC(=O)[C@@H](NC(=O)[C@H](CCN)NC(=O)c2ccnc(-c3ccccc3F)c2)[C@@H](C)O)CCNC(=O)[C@H]([C@@H](C)O)NC(=O)[C@H](CCN)NC(=O)[C@H](CCN)NC1=O [Example 5] (X7-[Dab]T[Dap][Dab][Dab][dF]L[Dab][Dab]T; lactam 4-C) .
83

Name the recorded CC50 at 24 h for CC(C)C[C@@H]1NC(=O)[C@@H](Cc2ccccc2)NC(=O)[C@H](CCN)NC(=O)[C@@H](NC(=O)[C@@H](CN)NC(=O)[C@@H](NC(=O)[C@H](CCN)NC(=O)c2ccnc(-c3ccccc3)c2)[C@@H](C)O)CCNC(=O)[C@H]([C@@H](C)O)NC(=O)[C@H](CCN)NC(=O)[C@H](CCN)NC1=O [Example 47] ({Isonicotinoyl(2-Ph)}-[Dab]T[dDap][Dab][Dab][dF]L[Dab][Dab]T; lactam 4-C) .
100
